target: hSFRP-1 (Homo sapiens, UniProt Q8N474); construct: expressed in transfected cells; host or cells: U2OS osteosarcoma cells (ATCC, HTB 96), transient co-transfection with Wnt 3, Wnt3A or Wnt 1, 16x TCF-tk-Luciferase reporter and CMV-beta-gal; assay: Cell-Based Assay for In Vitro Measurement of SFRP-1/SARP2 Antagonist Activity (U2OS cells, 16x TCF-tk-Luciferase reporter, Wnt + hSFRP-1 co-transfection); details: initial single dose screening at 10 μM, luciferase reporter activity, fold induction over SFRP-1 control
Sequence (Q8N474 32-314): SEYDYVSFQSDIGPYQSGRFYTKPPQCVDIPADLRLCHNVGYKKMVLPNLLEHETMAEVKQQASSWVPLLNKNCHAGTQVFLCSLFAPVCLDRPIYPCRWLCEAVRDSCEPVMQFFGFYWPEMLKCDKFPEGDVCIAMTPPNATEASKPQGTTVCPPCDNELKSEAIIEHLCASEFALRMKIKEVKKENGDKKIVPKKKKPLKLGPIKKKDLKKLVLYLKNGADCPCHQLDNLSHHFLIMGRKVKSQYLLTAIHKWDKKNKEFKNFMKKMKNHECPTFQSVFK
Property Name: fold induction at 10 µM

Some solved cases for reference:
- Compound: "CCOC(=O)c1c(-c2ccc(F)cc2)csc1NC(=O)CC1SC(=N)NC1=O (stereo not shown) [Example 47]"
  fold induction at 10 µM: 1.1
- Compound: "CCOC(=O)c1c(NC(=O)CC2SC(=N)NC2=O)sc(Br)c1C (stereo not shown) [Example 54]"
  fold induction at 10 µM: 2.6
- Compound: "N=C1NC(=O)C(CC(=O)Nc2ccc(F)c(Cl)c2)S1 (stereo not shown) [Example 11]"
  fold induction at 10 µM: 1.9
- Compound: "N#Cc1cccc(NC(=O)CC2SC(=N)NC2=O)c1 (stereo not shown) [Example 4]"
  fold induction at 10 µM: 1.3
- Compound: "N=C1NC(=O)C(CC(=O)Nc2ccc(Cl)c(Cl)c2)S1 (stereo not shown) [Example 6]"
  fold induction at 10 µM: 1.7

1: COC(=O)c1cc(-c2ccc(Cl)cc2)sc1NC(=O)CC1SC(=N)NC1=O (stereo not shown) [Example 57]
2: CCOC(=O)c1c(NC(=O)CC2SC(=N)NC2=O)sc(Br)c1CNC1CCCC1 (stereo not shown) [Example 63]
3: N=C1NC(=O)C(CC(=O)Nc2cccc(Cl)c2)S1 (stereo not shown) [Example 10]
[in] # ascending order, key=fold induction at 10 µM Output spec: labels arranged per the requested ranking.
[out] 1, 2, 3
(1: 0.9, 2: 1.5, 3: 2.2)

----------
biological target: hSFRP-1 (Homo sapiens, UniProt Q8N474); construct: expressed in transfected cells; host or cells: U2OS osteosarcoma cells (ATCC, HTB 96), transient co-transfection with Wnt 3, Wnt3A or Wnt 1, 16x TCF-tk-Luciferase reporter and CMV-beta-gal; test: Cell-Based Assay for In Vitro Measurement of SFRP-1/SARP2 Antagonist Activity (U2OS cells, 16x TCF-tk-Luciferase reporter, Wnt + hSFRP-1 co-transfection); settings: initial single dose screening at 10 μM, luciferase reporter activity, fold induction over SFRP-1 control
Property Name: fold induction at 10 µM

- Compound: "N=C1NC(=O)C(CC(=O)NCc2cccc(Cl)c2)S1 (stereo not shown)"
  Target Under Test: "hSFRP-1 (Homo sapiens, UniProt Q8N474)"
  fold induction at 10 µM: 1.2
- Compound: "COC(=O)c1ccccc1NC(=O)CC1SC(=N)NC1=O (stereo not shown)"
  Target Under Test: "hSFRP-1 (Homo sapiens, UniProt Q8N474)"
  fold induction at 10 µM: 1.1
- Compound: "CCOC(=O)c1c(C)csc1NC(=O)CC1SC(=N)NC1=O (stereo not shown)"
  Target Under Test: "hSFRP-1 (Homo sapiens, UniProt Q8N474)"
  fold induction at 10 µM: 2

I: CCOC(=O)c1c(NC(=O)CC2SC(=N)NC2=O)sc(Br)c1CBr (stereo not shown)
II: C#Cc1cccc(NC(=O)CC2SC(=N)NC2=O)c1 (stereo not shown)
[in] API: POST /compare with I and II ; response names the item with higher fold induction at 10 µM. Let me know the label of the one you choose.
[out] II

A: N=C1NC(=O)C(CC(=O)Nc2cccc(F)c2)S1 (stereo not shown)
B: CCOC(=O)c1c(NC(=O)CC2SC(N)=NC2=O)sc(C)c1C (stereo not shown)
[in] Param pair: A , B . Output: the one whose fold induction at 10 µM is numerically greater. Let me know the label of the one you choose.
[out] B
(B: 2.5, A: 1.5)

A: N=C1NC(=O)C(CC(=O)Nc2cccc(C(=O)c3ccccc3)c2)S1 (stereo not shown)
B: N=C1NC(=O)C(CC(=O)Nc2cccc(F)c2F)S1 (stereo not shown)
[in] Which record would sort first by descending fold induction at 10 µM, A or B ? Reply briefly: the label of your chosen item.
[out] A

src = patent US7563813B2
